System Name: Aspartate--tRNA(Asp/Asn) ligase (Mycobacterium tuberculosis (strain ATCC 25618 / H37Rv)) (UniProt P9WFW3); also: in the data most compounds retested in dose-response had high values
Sequence (P9WFW3 whole entry): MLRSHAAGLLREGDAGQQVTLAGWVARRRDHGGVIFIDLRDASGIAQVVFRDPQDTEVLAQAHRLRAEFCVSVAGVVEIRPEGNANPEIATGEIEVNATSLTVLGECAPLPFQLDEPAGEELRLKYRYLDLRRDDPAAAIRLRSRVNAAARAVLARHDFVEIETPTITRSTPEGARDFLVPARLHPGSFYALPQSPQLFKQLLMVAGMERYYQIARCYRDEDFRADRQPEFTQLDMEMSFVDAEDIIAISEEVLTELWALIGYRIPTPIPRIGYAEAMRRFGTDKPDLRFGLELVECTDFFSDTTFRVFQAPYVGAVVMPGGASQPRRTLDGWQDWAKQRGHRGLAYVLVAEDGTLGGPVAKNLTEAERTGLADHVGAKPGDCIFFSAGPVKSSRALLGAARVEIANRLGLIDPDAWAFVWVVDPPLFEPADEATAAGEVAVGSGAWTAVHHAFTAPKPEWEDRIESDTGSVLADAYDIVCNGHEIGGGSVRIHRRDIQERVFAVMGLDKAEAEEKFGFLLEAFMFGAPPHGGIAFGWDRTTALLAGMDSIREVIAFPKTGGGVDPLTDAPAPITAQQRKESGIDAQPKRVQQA
Test Protocol: Assay for Asp RNA synthetase-1 from Mycobacterium tuberculosis
Assay type: functional
Design: scale not given: direction of the effect not stated beside the values
Run Conditions: 30 µM
Here, each record is paired with measured Percent Effect data.

| Compound | Unit Text | Percent Effect |
| --- | --- | --- |
| c1cnn(CC2CCCN2Cc2nc(-c3ccoc3)no2)c1 (configuration not stated) | % | 0.0441 |
| CSCc1cccc(C(=O)N2CCN(CC(C)O)CC2)c1 (configuration not stated) | % | -0.819 |
| COc1c(C2CCCN2C(=O)c2cncnc2C)c(C)nn1C (configuration not stated) | % | 4.44 |
| Cc1nc(C2CCCN2CC(=O)N(Cc2ccsc2)C2CC2)no1 (configuration not stated) | % | 0.787 |
| O=C(CCNc1ncccn1)NCCc1ccn(-c2ccccc2)n1 | % | -3.01 |
| c1ccc(OCc2nnc3n2CCN(CC2CCOCC2)C3)nc1 | % | 10.1 |
| O=C(NCCC1=CCCCC1)C1CCN(c2ccc3nncn3n2)CC1 | % | -1.42 |

====

System Name: Aspartate--tRNA(Asp/Asn) ligase (Mycobacterium tuberculosis (strain ATCC 25618 / H37Rv)); also: in the data most compounds retested in dose-response had high values
Test Protocol: Assay for Asp RNA synthetase-1 from Mycobacterium tuberculosis
Type: functional
Design: scale not given: direction of the effect not stated beside the values
Run Conditions: 30 µM
Reported Endpoint: Percent Effect (%)

| Compound | Reported Measurement |
| --- | --- |
| Cc1cc(S(=O)(=O)N2CCc3ccc(F)cc32)cc(C(=O)O)c1C | 2.1 |
| CNS(=O)(=O)Cc1ccc(CNC(=O)c2cccc(C)n2)cc1 | -1.85 |
| CO[C@H]1CO[C@@]2(CCCN(C(=O)C3=CCCCC3)C2)C1 | 8.41 |
| Cc1cc(C)nc(CCNC(=O)[C@H]2CNC[C@@H](C(=O)N3CCCC3)C2)n1 | -2.14 |
| Cc1nc(N2CCCC2)nc2c1CN(C(C)C)CC2 | 1.86 |
| O=C1O[C@@H]2CN(Cc3ccccc3)C[C@@H]2N1CCCN1CCOCC1 | -3.37 |
| CN1CCCC1c1ccc(C(=O)N2CCc3ccccc3C2)s1 (centres undefined) | -5.54 |
| N#Cc1ccc(N2CCN(C(=O)c3cc(C4CC4)[nH]n3)CC2)c(F)c1 | -6.09 |
| CC(C)(CNC(=O)CCOc1cccc(F)c1)C(N)=O | -0.256 |
| Cn1ccnc1-c1cccc(NC(=O)NCCCO)c1 | -2.56 |
| CCc1nc(CN2CCCN(C(=O)c3cn[nH]c3CC)CC2)cs1 | -1.54 |
| Cc1nc(CN2CCc3nn(C(C)C)c(=O)cc3C2)oc1C | 7 |
| CN(C)S(=O)(=O)N1CC[C@@H]2CN(Cc3cnn(C)c3)C[C@@H]2C1 | 6.22 |
| CCc1nc(CN(CC(N)=O)C(C)C)cs1 | 0.799 |
| COCCNC(=O)c1cc(S(=O)(=O)N2CCCCC2)cs1 | 0.21 |
| CCc1nc(CN(C)C2CCN(CCc3ccccn3)C2)no1 (centres undefined) | 8.1 |
| CCCNC(=O)C1CCN(Cc2csc(C(C)(C)C)n2)CC1 | -0.628 |
| Cc1cc(C)n(CC2CCCN2C(=O)Cc2c(C)noc2C)n1 (centres undefined) | 7.79 |
| Cc1cnn(CCC(=O)N2CCOC(c3nc(C(C)(C)C)n[nH]3)C2)c1 (centres undefined) | -1.81 |

====

We begin with a simple list: items and their reported Percent Effect.
System Name: Shiga toxin 2 (Escherichia coli O157:H7) (UniProt P09385+P09386)
Test Protocol: E. coli 0.157:H7 Shiga Toxin SOP - stx2 screening assay
Format: functional
Design: scale not given: direction of the effect not stated beside the values
Run Conditions: 30 µM
Reported Endpoint: Percent Effect

| Compound | Reported Measurement |
| --- | --- |
| CCc1[nH]ncc1C(=O)N1CCCC(n2cccn2)C1 (stereo not drawn) | 3.89% |
| Cc1ccc(NC(=O)N(C)Cc2cnn(C)c2)cc1OCC(F)F | -4.22% |
| CC(C)C(NC(=O)Cn1ccc(=O)n(C)c1=O)c1ccc(F)cc1 (stereo not drawn) | -13.7% |
| Cc1nccn1CC1CCCN1CCCc1nc(-c2cccs2)no1 (stereo not drawn) | 16.4% |
| Cc1cnn(CC2CCCN2Cc2coc(-c3cccs3)n2)c1 (stereo not drawn) | 4.89% |
| CC(=O)Nc1nc(C(=O)N2CCCC2c2noc(C)n2)cs1 (stereo not drawn) | -22.5% |
| CCNc1cc2c(nn1)CCN(C(=O)c1ccnc(N(C)C)c1)C2 | 3.23% |
| COCCn1ccnc1C1CCCN(C(=O)CSCC2CC2)C1 (stereo not drawn) | 12.8% |

====

System Name: Aspartate--tRNA(Asp/Asn) ligase (Mycobacterium tuberculosis (strain ATCC 25618 / H37Rv)); also: in the data most compounds retested in dose-response had high values
Test Protocol: Assay for Asp RNA synthetase-1 from Mycobacterium tuberculosis
Assay type: functional
Set-up: scale not given: direction of the effect not stated beside the values
Run Conditions: 30 µM

| Compound | Percent Effect |
| --- | --- |
| CCNc1cc2c(nn1)CCN(C(=O)c1cc3nc(C)ccc3o1)C2 | -4.95% |
| CN(Cc1cccc(Cl)c1)S(=O)(=O)N1CCOCC1 | 2.4% |
| COc1ccc2cc(C(=O)N3CCCCC3CC(N)=O)[nH]c2c1 (configuration not stated) | -1.12% |
| COCc1cccc(NC(C)C(=O)N(C)Cc2ccccc2)c1 (configuration not stated) | -0.212% |
| O=C(c1cccnc1)N1C[C@@H]2CC[C@H](C1)N(Cc1cccc(Cl)c1F)C2 | 9.03% |
| CCOC1COC2(CCN(Cc3cccc(F)c3)CC2)C1 (configuration not stated) | -3.19% |
| OCc1ccc(Cl)c(NCc2cccnc2)c1 | 1.83% |
| CC(C)Cc1cc(C(=O)NCc2nnc[nH]2)[nH]n1 | 1.11% |
| OCCN1CCOC2(CCCN(c3cccc(F)c3)C2)C1 (configuration not stated) | -3.25% |
| COc1ccc(OC)c(-c2nc(CN(C)Cc3nncn3C)c(C)o2)c1 | 5.61% |
| CN(C)c1cc2c(nn1)CCN(C(=O)C1Cc3ccccc3S1)C2 (configuration not stated) | 1.89% |
| Cn1cc(C[C@H]2[C@H](O)CCN2CC2CC2)cn1 | -0.168% |

====

System Name: Aspartate--tRNA(Asp/Asn) ligase (Mycobacterium tuberculosis (strain ATCC 25618 / H37Rv)); also: in the data most compounds retested in dose-response had high values
Test Protocol: Assay for Asp RNA synthetase-1 from Mycobacterium tuberculosis
Type: functional
Parameters: scale not given: direction of the effect not stated beside the values
Run Conditions: 30 µM

| Compound | System Name | Percent Effect |
| --- | --- | --- |
| CC(C)CCC(C)NC(=O)c1ccc(OCC(N)=O)cc1 (stereo unspecified) | Aspartate--tRNA(Asp/Asn) ligase (Mycobacterium tuberculosis (strain ATCC 25618 / H37Rv)) | 2.49% |
| Cc1cc(S(=O)(=O)Nc2cccc(-n3cccc3)c2)sc1C(=O)O | Aspartate--tRNA(Asp/Asn) ligase (Mycobacterium tuberculosis (strain ATCC 25618 / H37Rv)) | 7.63% |
| CC(NC(=O)NCCCc1n[nH]c(N)c1C#N)c1ccccc1 (stereo unspecified) | Aspartate--tRNA(Asp/Asn) ligase (Mycobacterium tuberculosis (strain ATCC 25618 / H37Rv)) | 1.03% |
| O=C(Cn1c(=O)n(Cc2ccco2)c2ncccc21)NC1CCCCC1 | Aspartate--tRNA(Asp/Asn) ligase (Mycobacterium tuberculosis (strain ATCC 25618 / H37Rv)) | -3.2% |
| CN1[C@H](CN2CCCC2)C[C@@H]2CN(C(=O)c3cccn3C)CC[C@@H]21 | Aspartate--tRNA(Asp/Asn) ligase (Mycobacterium tuberculosis (strain ATCC 25618 / H37Rv)) | 2.46% |
| CCn1c(N)nc2cc(C(=O)NCCc3sccc3C)cnc21 | Aspartate--tRNA(Asp/Asn) ligase (Mycobacterium tuberculosis (strain ATCC 25618 / H37Rv)) | 2.47% |
| COc1ccc(Nc2nc3c(C)nn(C)c3c(=O)n2C)c(OC)c1 | Aspartate--tRNA(Asp/Asn) ligase (Mycobacterium tuberculosis (strain ATCC 25618 / H37Rv)) | 6.63% |
| O=c1n(CCSCc2ccccc2F)nc2ccccn12 | Aspartate--tRNA(Asp/Asn) ligase (Mycobacterium tuberculosis (strain ATCC 25618 / H37Rv)) | 0.461% |
| OC(CNCCn1cccn1)c1ccc(F)c(F)c1 (stereo unspecified) | Aspartate--tRNA(Asp/Asn) ligase (Mycobacterium tuberculosis (strain ATCC 25618 / H37Rv)) | -2.25% |
| CCN(CCC(F)(F)F)C(=O)Nc1cccc(N2CCOCC2)c1 | Aspartate--tRNA(Asp/Asn) ligase (Mycobacterium tuberculosis (strain ATCC 25618 / H37Rv)) | 1.08% |
| COc1cc(C(=O)N(CCC#N)Cc2ccccn2)cc(OC)c1C | Aspartate--tRNA(Asp/Asn) ligase (Mycobacterium tuberculosis (strain ATCC 25618 / H37Rv)) | -3.83% |
| CCN1CCN(C(=O)C(C)N2CCN(Cc3nccn3C)CC2)CC1 (stereo unspecified) | Aspartate--tRNA(Asp/Asn) ligase (Mycobacterium tuberculosis (strain ATCC 25618 / H37Rv)) | 0.262% |
| O=C(CCn1cnnc1)N1CCCC(c2ncc[nH]2)C1 (stereo unspecified) | Aspartate--tRNA(Asp/Asn) ligase (Mycobacterium tuberculosis (strain ATCC 25618 / H37Rv)) | 5.32% |
| Cn1ccc(CN2CCC(Oc3ccccc3)CC2)cc1=O | Aspartate--tRNA(Asp/Asn) ligase (Mycobacterium tuberculosis (strain ATCC 25618 / H37Rv)) | -1.21% |
| COc1cccc(C2CC(=O)Nc3nc(N4CCOCC4)sc32)c1OC (stereo unspecified) | Aspartate--tRNA(Asp/Asn) ligase (Mycobacterium tuberculosis (strain ATCC 25618 / H37Rv)) | 63.4% |
| O=C(C(CNCc1ccsc1)c1ccccc1)N1CCOCC1 (stereo unspecified) | Aspartate--tRNA(Asp/Asn) ligase (Mycobacterium tuberculosis (strain ATCC 25618 / H37Rv)) | 4.13% |
| CCc1n[nH]c(C2CN(C(=O)Cn3ccccc3=O)CCO2)n1 (stereo unspecified) | Aspartate--tRNA(Asp/Asn) ligase (Mycobacterium tuberculosis (strain ATCC 25618 / H37Rv)) | 0.8% |
| c1ccc(N2CCOC3(CCCN(c4nncs4)C3)C2)nc1 (stereo unspecified) | Aspartate--tRNA(Asp/Asn) ligase (Mycobacterium tuberculosis (strain ATCC 25618 / H37Rv)) | 6.43% |
| Cc1nn(C)c(Cl)c1C1CCCN1CC(=O)NCc1ccccn1 (stereo unspecified) | Aspartate--tRNA(Asp/Asn) ligase (Mycobacterium tuberculosis (strain ATCC 25618 / H37Rv)) | -2.78% |
| O=C(NCCCNc1ccccc1)c1scnc1Cl | Aspartate--tRNA(Asp/Asn) ligase (Mycobacterium tuberculosis (strain ATCC 25618 / H37Rv)) | -0.926% |
| CC(C(=O)N1CCCN(c2ncccc2C#N)CC1)n1cccn1 (stereo unspecified) | Aspartate--tRNA(Asp/Asn) ligase (Mycobacterium tuberculosis (strain ATCC 25618 / H37Rv)) | -4.27% |
| CCn1cnnc1CNC(=O)c1cc(Cl)ccc1O | Aspartate--tRNA(Asp/Asn) ligase (Mycobacterium tuberculosis (strain ATCC 25618 / H37Rv)) | 3.77% |
| CC(Cn1cccn1)NC(=O)CCc1ccc(S(N)(=O)=O)cc1 (stereo unspecified) | Aspartate--tRNA(Asp/Asn) ligase (Mycobacterium tuberculosis (strain ATCC 25618 / H37Rv)) | -2.91% |
| CCN(CC)C(=O)Nc1cc2c(cc1SC)OCCO2 | Aspartate--tRNA(Asp/Asn) ligase (Mycobacterium tuberculosis (strain ATCC 25618 / H37Rv)) | -1.51% |
| COc1ccc(Cl)cc1C(=O)N1CCCC(n2nc(C)nc2C)C1 (stereo unspecified) | Aspartate--tRNA(Asp/Asn) ligase (Mycobacterium tuberculosis (strain ATCC 25618 / H37Rv)) | -5.94% |
| CN(C)c1ccc(CN(CCCn2ccnc2)Cc2c[nH]cn2)cc1 | Aspartate--tRNA(Asp/Asn) ligase (Mycobacterium tuberculosis (strain ATCC 25618 / H37Rv)) | 0.194% |
